- Assay Target: UniProt:P28335
- Sequence (P28335 whole entry): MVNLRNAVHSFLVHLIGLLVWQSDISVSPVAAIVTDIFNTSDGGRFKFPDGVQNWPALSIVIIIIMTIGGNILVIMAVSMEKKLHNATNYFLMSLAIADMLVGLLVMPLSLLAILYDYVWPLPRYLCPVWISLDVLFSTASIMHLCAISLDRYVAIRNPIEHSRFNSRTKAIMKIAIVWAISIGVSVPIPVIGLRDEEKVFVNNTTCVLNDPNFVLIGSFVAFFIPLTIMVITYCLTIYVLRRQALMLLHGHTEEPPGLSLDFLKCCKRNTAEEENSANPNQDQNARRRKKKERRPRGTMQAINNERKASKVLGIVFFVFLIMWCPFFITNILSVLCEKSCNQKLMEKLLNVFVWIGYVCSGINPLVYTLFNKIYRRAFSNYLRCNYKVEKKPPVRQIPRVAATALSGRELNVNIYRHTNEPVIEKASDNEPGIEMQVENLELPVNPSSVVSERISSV
- Test: Binding to human 5HT2C receptor expressed in CHO cells relative to 5HT
- Format: cell-based
Checkbox rule: Efficacy lower than 90% = Criterion met; Efficacy not lower than 90% = Criterion not met.

**Q:** # TODO verify Efficacy < 90% strictly for this molecule: `C[C@H](N)Cn1ccc2ccc3ccncc3c21`
**A:** Criterion not met

**Q:** Could you do the same for `C[C@H](N)Cn1ccc2cc(Cl)c3ncccc3c21` , please?
**A:** Criterion not met

**Q:** Could you do the same for `C[C@@H](Cn1ccc2ccc3ncccc3c21)NCc1ccc2c(c1)OCO2` , please?
**A:** Criterion not met

**Q:** Could you do the same for `C[C@H](N)Cn1ccc2ccc3ncccc3c21` , please?
**A:** Criterion not met

**Q:** Could you do the same for `Cc1ccccc1CN[C@@H](C)Cn1ccc2ccc3ncccc3c21` , please?
**A:** Criterion met

**Q:** Could you do the same for `C[C@H](N)Cn1ccc2cc(F)c(Cl)cc21` , please?
**A:** Criterion not met

**Q:** Could you do the same for `C[C@@H](Cn1ccc2ccc3ncccc3c21)NCc1ccccc1` , please?
**A:** Criterion met

**Q:** Could you do the same for `C[C@H](N)Cn1ccc2ccc3cccnc3c21` , please?
**A:** Criterion met

----------
- Assay Target: 5-hydroxytryptamine receptor 2B (Homo sapiens)
- Sequence (P41595 whole entry): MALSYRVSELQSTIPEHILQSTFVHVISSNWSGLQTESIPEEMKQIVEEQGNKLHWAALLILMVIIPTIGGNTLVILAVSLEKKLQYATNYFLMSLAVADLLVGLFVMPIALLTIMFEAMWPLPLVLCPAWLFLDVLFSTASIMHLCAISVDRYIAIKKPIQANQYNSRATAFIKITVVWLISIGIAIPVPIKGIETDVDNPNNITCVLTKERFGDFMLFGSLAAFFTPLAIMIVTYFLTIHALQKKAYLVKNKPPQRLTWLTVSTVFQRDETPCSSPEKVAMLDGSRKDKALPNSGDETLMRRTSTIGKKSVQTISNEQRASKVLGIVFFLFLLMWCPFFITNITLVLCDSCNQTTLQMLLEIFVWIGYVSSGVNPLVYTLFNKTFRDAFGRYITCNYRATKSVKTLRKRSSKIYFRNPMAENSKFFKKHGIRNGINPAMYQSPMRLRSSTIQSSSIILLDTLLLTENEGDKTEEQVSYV
- Test: Binding to human 5HT2B receptor expressed in CHO cells relative to 5HT
- Type: cell-based
Could you please classify the records by Efficacy using these ranges: class A (below 60%), class B (60% to below 70%), class C (70% or more)

**Q:** Band for the recorded Efficacy of `C[C@@H](Cn1ccc2ccc3ncccc3c21)NCc1ccc2ccccc2c1` ?
**A:** class C

**Q:** Could you do the same for `COc1ccccc1CN[C@@H](C)Cn1ccc2ccc3ncccc3c21` , please?
**A:** class A

**Q:** Could you do the same for `C[C@@H](Cn1ccc2ccc3ncccc3c21)NCC1CCCCC1` , please?
**A:** class B

**Q:** Could you do the same for `Cc1ccccc1CN[C@@H](C)Cn1ccc2ccc3ncccc3c21` , please?
**A:** class B

**Q:** Could you do the same for `C[C@H](N)Cn1ccc2ccc3ncccc3c21` , please?
**A:** class B

**Q:** Could you do the same for `Clc1cccc(N2CCNCC2)c1` , please?
**A:** class A

----------
- Assay Target: UniProtKB P28223
- Sequence (P28223 whole entry): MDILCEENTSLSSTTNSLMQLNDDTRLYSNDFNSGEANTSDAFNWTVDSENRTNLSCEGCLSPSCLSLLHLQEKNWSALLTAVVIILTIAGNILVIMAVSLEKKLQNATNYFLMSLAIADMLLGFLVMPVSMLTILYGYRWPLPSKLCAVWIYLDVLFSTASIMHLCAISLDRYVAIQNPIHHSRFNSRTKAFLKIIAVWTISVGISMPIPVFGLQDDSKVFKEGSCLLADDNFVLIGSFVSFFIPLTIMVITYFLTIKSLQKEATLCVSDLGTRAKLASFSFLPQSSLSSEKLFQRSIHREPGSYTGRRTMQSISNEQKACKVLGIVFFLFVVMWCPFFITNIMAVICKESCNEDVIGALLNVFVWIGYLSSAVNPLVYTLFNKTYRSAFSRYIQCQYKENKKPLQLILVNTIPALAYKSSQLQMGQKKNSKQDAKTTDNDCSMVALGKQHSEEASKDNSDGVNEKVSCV
Parameter Measured: pKi
Keep in mind that pKi stands for -log10 of concentration in molar terms.

**Q:** Any idea what pKi was measured for `COc1ccccc1CN[C@@H](C)Cn1ccc2ccc3ncccc3c21` ?
**A:** 5.80

**Q:** Could you do the same for `C=CCN[C@@H](C)Cn1ccc2ccc3ncccc3c21` , please?
**A:** 5.94

**Q:** Could you do the same for `C[C@H](N)Cn1ccc2ccc3ncccc3c21` , please?
**A:** 7.51

**Q:** Could you do the same for `C[C@H](N)Cn1ccc2ccc3cccnc3c21` , please?
**A:** 6.64

**Q:** Could you do the same for `C[C@@H](Cn1ccc2ccc3ncccc3c21)NCc1ccccc1` , please?
**A:** 6.07

**Q:** Could you do the same for `C[C@H](N)Cn1ccc2ccc3cnccc3c21` , please?
**A:** 5.98

**Q:** Could you do the same for `C[C@@H](Cn1ccc2ccc3ncccc3c21)NCC1CCCCC1` , please?
**A:** 6.03

**Q:** Could you do the same for `C[C@@H](Cn1ccc2ccc3ncccc3c21)NCc1ccccc1Cl` , please?
**A:** 6.17

**Q:** Could you do the same for `C[C@H](N)Cn1ccc2cc(Cl)c3ncccc3c21` , please?
**A:** 7.54

**Q:** Could you do the same for `C[C@@H](Cn1ccc2ccc3ncccc3c21)NCc1ccc2ccccc2c1` , please?
**A:** 6.74

**Q:** Could you do the same for `C[C@H](N)Cn1ccc2ccc3ccncc3c21` , please?
**A:** 6.64

Recorded values, source ChEMBL document CHEMBL1149379.
